- tested_system: Estrogen receptor (Homo sapiens)
- assay_info: ERalpha ligand binders by competition, primary screen, cell-based, Cos7 ERalpha-GFP, flow cytometry (AID 1211);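 also: 0% = DMSO vehicle wells and 100% = no E2-Alexa633 signal left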
- condition_description: fluorescent ligand competition, at 10 µM, stronger effect = higher value
We use 20% as the dividing line for inhibition of ligand binding: on or above the line is Yes, below is No.

>  <compound>
COc1ccc(NS(=O)(=O)c2ccc3c(c2)[C@H]2C=CC[C@H]2[C@@H](c2ccc(F)cc2)N3)cc1

>  <label>
No

$$$$
>  <compound>
CCOc1ccc(Nc2oc(-c3ccccc3Cl)nc2C#N)cc1

>  <label>
Yes

$$$$
>  <compound>
O=C(Nc1nccs1)c1nc(-c2ccccc2)n(-c2ccccc2)n1

>  <label>
Yes

$$$$
>  <compound>
Cn1c(SCc2cc(=O)n3cc(Br)ccc3n2)nnc1C1COc2ccccc2O1 (centres undefined)

>  <label>
No

$$$$
>  <compound>
COc1nnc(-c2ccc(C(=O)N3C[C@@H]4C[C@H](C3)c3cccc(=O)n3C4)cc2)c2ccccc12

>  <label>
No

$$$$

Would you say COc1cccc(-c2[nH]nc3c2C(c2ccoc2)C(C#N)=C(N)O3)c1 (centres undefined) shows inhibition of ligand binding at minimum 20%?
Yes

Would you say `O=C(CCCn1c(=S)[nH]c2ccccc2c1=O)N1CCN(c2cccc(Cl)c2)CC1` shows inhibition of ligand binding at minimum 20%?
Yes

Would you say `Cc1cc(C(=O)Nc2sc3c(c2C#N)CCC3)no1` shows inhibition of ligand binding at minimum 20%?
Yes

---

- tested_system: Estrogen receptor (Homo sapiens) (UniProt P03372)
- Sequence (P03372 whole entry, looked up): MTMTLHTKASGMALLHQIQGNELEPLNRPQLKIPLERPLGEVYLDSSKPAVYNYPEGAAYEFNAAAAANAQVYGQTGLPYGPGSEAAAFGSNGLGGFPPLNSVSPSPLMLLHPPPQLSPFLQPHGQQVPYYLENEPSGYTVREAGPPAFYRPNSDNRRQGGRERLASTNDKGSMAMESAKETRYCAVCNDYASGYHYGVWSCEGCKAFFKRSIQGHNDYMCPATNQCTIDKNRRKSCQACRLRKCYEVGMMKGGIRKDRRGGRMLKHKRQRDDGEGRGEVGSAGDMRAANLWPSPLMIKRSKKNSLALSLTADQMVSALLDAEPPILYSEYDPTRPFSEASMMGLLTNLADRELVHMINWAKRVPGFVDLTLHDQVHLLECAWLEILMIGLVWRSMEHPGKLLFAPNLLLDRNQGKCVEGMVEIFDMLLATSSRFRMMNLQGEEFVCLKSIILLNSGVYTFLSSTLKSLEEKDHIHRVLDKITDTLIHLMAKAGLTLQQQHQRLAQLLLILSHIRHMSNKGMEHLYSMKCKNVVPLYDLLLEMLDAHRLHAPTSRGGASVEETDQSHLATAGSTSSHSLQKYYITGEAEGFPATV
- assay_info: ERalpha ligand binders by competition, primary screen, cell-based, Cos7 ERalpha-GFP, flow cytometry (AID 1211);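 also: 0% = DMSO vehicle wells and 100% = no E2-Alexa633 signal left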
- condition_description: fluorescent ligand competition, at 10 µM, stronger effect = higher value
Measured inhibition of ligand binding accompanies every entry in the list below.
# output: bare number, implied unit %

Reference set, count: 5
>  <compound>
COc1ccc(C2CC(=O)Nc3ccccc3S2(=O)=O)cc1OC (configuration not stated)

>  <assay_value>
0

$$$$
>  <compound>
C/C(=N\Nc1ccc([N+](=O)[O-])cc1)c1cccc(N)c1

>  <assay_value>
4

$$$$
>  <compound>
CCCc1c(C(=O)OCC)[nH]c2c1C(=O)CC(c1ccccc1)C2 (configuration not stated)

>  <assay_value>
27

$$$$
>  <compound>
CCOC(=O)c1sc(NC(=O)c2ccc3ncsc3c2)nc1C

>  <assay_value>
33

$$$$
>  <compound>
Cc1c(C(=O)OCc2ccccc2)[nH]c2c1C(=O)CC(c1ccco1)C2 (configuration not stated)

>  <assay_value>
37

$$$$

Given the compound `c1coc(-c2nn3c(-c4ccco4)nnc3s2)c1` , write its reported inhibition of ligand binding.
15

Given the compound `CC(C)CC(=O)Nc1ccc(C(=O)COc2ccc(-c3nnco3)cc2)cc1` , write its reported inhibition of ligand binding.
28

---

- tested_system: Estrogen receptor (Homo sapiens) (UniProt P03372)
- assay_info: ERalpha ligand binders by competition, primary screen, cell-based, Cos7 ERalpha-GFP, flow cytometry (AID 1211);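 also: 0% = DMSO vehicle wells and 100% = no E2-Alexa633 signal left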
- condition_description: fluorescent ligand competition, at 10 µM, stronger effect = higher value
Measured inhibition of ligand binding accompanies every entry in the list below.
# output: bare number, implied unit %

# assay system Estrogen receptor (Homo sapiens) (UniProt P03372): give inhibition of ligand binding of CC(C)C1CC(CCNCc2ccc3c(c2)OCO3)(c2ccccc2)CCO1 (stereo not given)
26

# assay system Estrogen receptor (Homo sapiens) (UniProt P03372): give inhibition of ligand binding of `Cc1nnc(SCC(=O)NC(=O)NCc2ccco2)n1Cc1ccccc1`
8

# assay system Estrogen receptor (Homo sapiens) (UniProt P03372): give inhibition of ligand binding of COc1ccc(C2=NN(C(=O)c3cccnc3)C(c3ccccc3)C2)cc1 (stereo not given)
37

# assay system Estrogen receptor (Homo sapiens) (UniProt P03372): give inhibition of ligand binding of COC(=O)c1ccc(C2Nc3ccc(/C(C)=N/NC(=O)C(OC)c4ccccc4)cc3C3C=CCC32)cc1 (stereo not given)
0

# assay system Estrogen receptor (Homo sapiens) (UniProt P03372): give inhibition of ligand binding of `CCOc1ccc(NS(=O)(=O)c2ccc3c(c2)[C@H]2C=CC[C@H]2[C@@H](c2cccc([N+](=O)[O-])c2)N3)cc1`
0

# assay system Estrogen receptor (Homo sapiens) (UniProt P03372): give inhibition of ligand binding of Fc1ccc2c(c1)C1C=CCC1C(c1cc3c(cc1Br)OCO3)N2 (stereo not given)
84

# assay system Estrogen receptor (Homo sapiens) (UniProt P03372): give inhibition of ligand binding of `C=CCn1c(SCC(=O)NC(=O)NCc2ccco2)nc2sc(CC)cc2c1=O`
10

---

- tested_system: Estrogen receptor (Homo sapiens) (UniProt P03372)
- assay_info: ERalpha ligand binders by competition, primary screen, cell-based, Cos7 ERalpha-GFP, flow cytometry (AID 1211);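 also: 0% = DMSO vehicle wells and 100% = no E2-Alexa633 signal left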
- condition_description: fluorescent ligand competition, at 10 µM
The source made the active and inactive calls. The rule behind the calls is not given here.
Reply using exactly one outcome from t for active, f for inactive

Some solved cases for reference:
>  <compound>
Cc1cccc2cc(C(c3nnnn3C(C)(C)C)N(Cc3ccco3)CC3CCCO3)c(=O)[nH]c12 (stereo unspecified)

>  <label>
f

$$$$
>  <compound>
CCCOc1cc(OCCC)c2c3c(c(=O)oc2c1)CCCC3

>  <label>
f

$$$$
>  <compound>
O=C(CSc1nc2scc(-c3ccco3)c2c(=O)n1-c1ccccc1)NCC1CCCO1 (stereo unspecified)

>  <label>
f

$$$$
>  <compound>
CN(c1ccccc1C(=O)O)S(=O)(=O)c1ccc2c3c(cccc13)C(=O)N2

>  <label>
f

$$$$
>  <compound>
CCCCn1c(=O)[nH]c2nc3cc(N)ccc3nc2c1=O

>  <label>
f

$$$$
>  <compound>
C=CCn1c(COc2ccccc2F)nnc1SCC(=O)NC(=O)NCc1ccco1

>  <label>
f

$$$$

Please turn your attention to the following entry.
Hi, sorry to bother you, what did the test record for `COc1cccc(C(=O)NC2CCN(C(=O)N3c4ccccc4Sc4ccccc43)CC2)c1` ?
f

---

- tested_system: Estrogen receptor (Homo sapiens) (UniProt P03372)
- assay_info: ERalpha ligand binders by competition, primary screen, cell-based, Cos7 ERalpha-GFP, flow cytometry (AID 1211);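 also: 0% = DMSO vehicle wells and 100% = no E2-Alexa633 signal left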
- condition_description: fluorescent ligand competition, at 10 µM
The source made the active and inactive calls. How the calls were made is not given here.
Reply using exactly one outcome from 1 for active, 0 for inactive

Some solved cases for reference:
>  <compound>
c1coc(C2Nc3ccccc3C3OCCC23)c1 (stereo not drawn)

>  <label>
0

$$$$
>  <compound>
COc1ccc2c(c1)c(=O)oc1cc3oc(C)c(C)c3cc12

>  <label>
0

$$$$
>  <compound>
Cc1nnc(NC(=O)Cc2cccs2)s1

>  <label>
0

$$$$
>  <compound>
Cc1ccc(C(=O)ONc2ccc(N=NC(=O)c3ccccc3O)cc2)cc1

>  <label>
0

$$$$
>  <compound>
COC(=O)c1c(NC(=O)Cc2cccs2)sc2c1CCCC2

>  <label>
1

$$$$
>  <compound>
O=C1N/C(=C\c2ccc(O)cc2)C(=O)c2ccccc21

>  <label>
0

$$$$
>  <compound>
CCn1c(SCC(=O)Nc2ccc3c(c2)oc2ccccc23)nnc1-c1ccc(N)cc1

>  <label>
0

$$$$

Hi, sorry to bother you, what did the test record for Cc1ccc2c(c1)C1C=CCC1C(C(=O)O)N2 (stereo not drawn) ?
0

---

- tested_system: Estrogen receptor (Homo sapiens) (UniProt P03372)
- assay_info: ERalpha ligand binders by competition, primary screen, cell-based, Cos7 ERalpha-GFP, flow cytometry (AID 1211);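 also: 0% = DMSO vehicle wells and 100% = no E2-Alexa633 signal left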
- condition_description: fluorescent ligand competition, at 10 µM, stronger effect = higher value
attribute_measured: inhibition of ligand binding (%)
# output: bare number, implied unit %

Reference set, count: 10
>  <compound>
O=C(Nc1cccc(-c2cnc3ccccc3n2)c1)c1cccc(NC(=O)c2ccco2)c1

>  <tested_system>
Estrogen receptor (Homo sapiens) (UniProt P03372)

>  <units_of_measure>
%

>  <inhibition of ligand binding>
68

$$$$
>  <compound>
COc1ccc(CCn2c(SCC(=O)Nc3cc(C)on3)nc3ccsc3c2=O)cc1OC

>  <tested_system>
Estrogen receptor (Homo sapiens) (UniProt P03372)

>  <units_of_measure>
%

>  <inhibition of ligand binding>
33

$$$$
>  <compound>
COc1cccc(-c2nnc(NC(=O)Cc3cccs3)s2)c1

>  <tested_system>
Estrogen receptor (Homo sapiens) (UniProt P03372)

>  <units_of_measure>
%

>  <inhibition of ligand binding>
52

$$$$
>  <compound>
COc1cc(C(C#N)N2N=C(c3ccccc3)CC2c2ccccc2)ccc1O (centres undefined)

>  <tested_system>
Estrogen receptor (Homo sapiens) (UniProt P03372)

>  <units_of_measure>
%

>  <inhibition of ligand binding>
3

$$$$
>  <compound>
CCOC(=O)CN1C(c2ccc(O)cc2)Nc2ccc(Br)cc2C1c1ccccc1 (centres undefined)

>  <tested_system>
Estrogen receptor (Homo sapiens) (UniProt P03372)

>  <units_of_measure>
%

>  <inhibition of ligand binding>
24

$$$$
>  <compound>
CCC(Oc1ccc2c3c(c(=O)oc2c1C)CCC3)C(=O)OC (centres undefined)

>  <tested_system>
Estrogen receptor (Homo sapiens) (UniProt P03372)

>  <units_of_measure>
%

>  <inhibition of ligand binding>
15

$$$$
>  <compound>
COc1cc(C(Nc2ccccn2)c2ccc3ccc(C)nc3c2O)cc(OC)c1O (centres undefined)

>  <tested_system>
Estrogen receptor (Homo sapiens) (UniProt P03372)

>  <units_of_measure>
%

>  <inhibition of ligand binding>
54

$$$$
>  <compound>
CC1=C(SCCC#N)S/C(=C2\SC(C)=C(SCCC#N)S2)S1

>  <tested_system>
Estrogen receptor (Homo sapiens) (UniProt P03372)

>  <units_of_measure>
%

>  <inhibition of ligand binding>
59

$$$$
>  <compound>
Cc1ccc(C2=Nc3ccccc3N=C(c3ccco3)C2)c(O)c1

>  <tested_system>
Estrogen receptor (Homo sapiens) (UniProt P03372)

>  <units_of_measure>
%

>  <inhibition of ligand binding>
2

$$$$
>  <compound>
O=C(c1cc2c(s1)CCC2)N1CCN(c2ccccc2)CC1

>  <tested_system>
Estrogen receptor (Homo sapiens) (UniProt P03372)

>  <units_of_measure>
%

>  <inhibition of ligand binding>
16

$$$$

Given the compound O=C(O)c1ccc(Cl)c2c1C1C=CCC1C(c1ccccn1)N2 (centres undefined) , write its reported inhibition of ligand binding.
43

Given the compound `COc1ccc2cc3c(N)nn(C(=O)Cc4ccc(Cl)cc4)c3nc2c1` , write its reported inhibition of ligand binding.
18

Given the compound `COc1cccc2cc3c(=O)n(-c4ccccc4)nc-3oc12` , write its reported inhibition of ligand binding.
47

Given the compound `O=c1[nH]c(N/N=C/c2ccc(O)cc2)nc2ccccc12` , write its reported inhibition of ligand binding.
23

Given the compound `Oc1cccc(-c2nc3ccc4ccccc4c3c3c2CCC3)c1` , write its reported inhibition of ligand binding.
33

Given the compound `CSC1=N/C(=C\c2ccc(Br)o2)C(=O)S1` , write its reported inhibition of ligand binding.
12

Given the compound `Cc1oc2cc(O)ccc2c(=O)c1Oc1ccccc1` , write its reported inhibition of ligand binding.
58

Given the compound `COc1ccc2[nH]c3c(c2c1)CCn1c-3nc2ccccc2c1=O` , write its reported inhibition of ligand binding.
25
